target: myotoxic Asp-49 phospholipase A2 (PLA2) from Crotalus durissus cumanensis venom; assay: chromogenic PLA2 assay, […] nm, 96-well plate; conditions: substrate 4-nitro-3-octanoyloxybenzoic acid type (4N3OBA, 20 μL of 10 mM); 10 mM Tris-HCl, 10 mM CaCl2, 100 mM NaCl, pH 8.0; 37 °C; 20 μg PLA2, 30 min pre-incubation; from linear portion of the dose-r
assay-readout: IC50

Notebook: O=[N+]([O-])c1ccc(C(=S)SCc2ccccc2)cc1 [I, Benzyl 4-nitrobenzenecarbodithioate] , IC50 read as 55.6 µM
